Reference source: the supplement of paper PMC11061612

Test system: RMG-I (Ovarian Carcinoma)
assay-notes: combination Emax (second highest fraction inhibited in the dose matrix, 72 h); higher = more inhibition; extreme values may be limits of the assay
Threshold rule: combination Emax greater than or equal to 0.7 is Condition met; below that, Condition not met.

C[C@@H]1COCCN1c1cc(C2([S@](C)(=N)=O)CC2)nc(-c2ccnc3[nH]ccc23)n1 [AZD6738] + C1CC(C1)(C(=O)[O-])C(=O)[O-].N.N.[Pt+2] [Carboplatin] (first compound max 10 µM, 7x7, partner max 10 µM) : Condition not met
Cc1c2c(nn1C)CSCc1cc(n(C)n1)CSc1cc(c3ccccc3c1)OCCCc1c(C(=O)O)n(C)c3c-2c(Cl)ccc13 [AZD5991] + C[C@@H](Nc1cc(F)cc(F)c1)c1cc(C(=O)N(C)C)cc2c(=O)cc(N3CCOCC3)oc12 [AZD8186] (first compound max 1 µM, 7x7, partner max 3 µM) : Condition not met
CN(CCO)CC[C@H](CSc1ccccc1)Nc1ccc(S(=O)(=O)NC(=O)c2ccc(N3CCC([C@@H](O)c4ccccc4-c4ccc(Cl)cc4)CC3)cc2)cc1S(=O)(=O)C(F)(F)F [AZD4320] + CC(=O)O[C@H]1C(=O)[C@@]2(C)[C@H]([C@H](OC(=O)c3ccccc3)[C@]3(O)C[C@H](OC(=O)[C@H](O)[C@@H](NC(=O)c4ccccc4)c4ccccc4)C(C)=C1C3(C)C)[C@]1(OC(C)=O)CO[C@@H]1C[C@@H]2O [Paclitaxel] (first compound max 1 µM, 7x7, partner max 3 µM) : Condition met

# evaluate next
# input State whether the measured combination Emax reaches 0.7, counting equality as reaching it, for C=CCn1c(=O)c2cnc(Nc3ccc(N4CCN(C)CC4)cc3)nc2n1-c1cccc(C(C)(C)O)n1 [AZD1775] + C1CN(CCC1(C(=O)N[C@@H](CCO)C2=CC=C(C=C2)Cl)N)C3=NC=NC4=C3C=CN4 [Capivasertib] (first compound max 3 µM, partner max 3 µM)
# output Condition not met
